test context: buffer; pH 7.4; 200.0 µM
property measured: solubility kinetic

[
  {
    "compound": "C1=CCN(Cc2ccccc2)C1",
    "result": "4.1 µg/mL"
  },
  {
    "compound": "O=C1NCCSC1c1ccccc1 (configuration not stated)",
    "result": "> 29 µg/mL"
  },
  {
    "compound": "CCc1nnc(SC(C)C(=O)Nc2nccs2)n1C (configuration not stated)",
    "result": "> 44.6 µg/mL"
  },
  {
    "compound": "O=C(OCCN1CCOCC1)c1ccc(O)cc1",
    "result": "> 37.7 µg/mL"
  },
  {
    "compound": "CCOc1ccc(-c2nc(CCl)cs2)cc1OC.Cl",
    "result": "27.2 µg/mL"
  },
  {
    "compound": "CC(OC(=O)c1ccccc1)C(=O)NCCC1=CCCCC1 (configuration not stated)",
    "result": "> 45.2 µg/mL"
  }
]

Kindly review the next compound as well.
GET /values?readout=solubility kinetic&item= Cc1ccc(C(=O)O)c(C(=O)Nc2nc3ccccc3s2)c1
> 46.9 µg/mL
